test: Binding affinity to recombinant Helicobacter pylori MTAN expressed in Escherichia coli BL21(DE3) assessed as reduction in MTA hydrolysis measured after 40 mins in presence of xanthine oxidase
pKd: −log10 of the molar value.
Criterion: pKd meeting or surpassing 10. Met: yes. Not met: no.

C#CCCCSC[C@H]1CN(Cc2c[nH]c3c(N)ncnc23)C[C@@H]1O; yes
Cn1cc(CCCSC[C@H]2CN(Cc3c[nH]c4c(N)ncnc34)C[C@@H]2O)nn1; yes
CSC[C@H]1CN(Cc2c[nH]c3c(N)nccc23)C[C@@H]1O; no

Reported pKd at or above 10? Cn1cc(CSC[C@H]2CN(Cc3c[nH]c4c(N)ncnc34)C[C@@H]2O)nn1
no

Further, for C=CCn1cc(CSC[C@H]2CN(Cc3c[nH]c4c(N)ncnc34)C[C@@H]2O)nn1 ?
no

Further, for C=CCn1cc(CCCSC[C@H]2CN(Cc3c[nH]c4c(N)ncnc34)C[C@@H]2O)nn1 ?
yes

###

experiment: Binding affinity to recombinant Helicobacter pylori MTAN expressed in Escherichia coli BL21(DE3) assessed as reduction in MTA hydrolysis measured after 40 mins in presence of xanthine oxidase
pKd: −log10 of the molar value.
Criterion: pKd meeting or surpassing 10. Met: true (1). Not met: false (0).

Nc1ncnc2c(CN3C[C@H](CSCCCc4cn(Cc5ccccc5)nn4)[C@@H](O)C3)c[nH]c12; true (1)
CCCCn1cc(CSC[C@H]2CN(Cc3c[nH]c4c(N)ncnc34)C[C@@H]2O)nn1; false (0)
CSC[C@H]1CN(Cc2[nH]nc3c(N)ncnc23)C[C@@H]1O; false (0)

Now examine the next entry.
Reported pKd at or above 10? CCCCn1cc(CCCSC[C@H]2CN(Cc3c[nH]c4c(N)ncnc34)C[C@@H]2O)nn1
true (1)
